From: patent US20140039044A1

System: HT-29 cells
Assay: Cell cycle distribution by flow cytometry
Assay type: cell-based, human
Conditions: 5 μM, 24 h
ENDPOINT: Cell Cycle Distribution S
Answers are plain numbers.

Worked cases, answers included:
{"MOLECULE": "COc1ccc(-c2cc(=O)c3c(OC)c(OC)c(OC)c(OC)c3o2)cc1O", "EXPERIMENTAL VALUE": 31.28}
{"MOLECULE": "COc1cc(-c2cc(=O)c3c(OC)c(OC)c(OC)c(OC)c3o2)cc(OC)c1OC [F, 5,6,7,8,3′,4′,5′-heptamethoxyflavone, reference compound]", "EXPERIMENTAL VALUE": 22.66}

For each listed entry, give its Cell Cycle Distribution S.
1. COc1ccc(-c2oc3c(OC)c(OC)c(OC)c(O)c3c(=O)c2OC)cc1OC
2. COc1ccc(-c2oc3c(OC)c(OC)c(OC)c(OC)c3c(=O)c2OC)cc1OC [D, 3,5,6,7,8,3,4-heptamethoxyflavone, reference compound]
3. COc1ccc(-c2cc(=O)c3c(OC)c(OC)c(OC)c(OC)c3o2)cc1OC [Compound A, 5,6,7,8,3′,4′-hexamethoxyflavone, reference compound]
4. COc1cc(-c2cc(=O)c3c(O)c(OC)c(OC)c(OC)c3o2)cc(OC)c1OC
5. COc1c(OC)c(OC)c2c(=O)cc(-c3ccc(O)c(O)c3)oc2c1OC
6. COc1ccc(-c2cc(=O)c3c(O)c(OC)c(OC)c(OC)c3o2)cc1OC
7. COc1ccc(-c2cc(=O)c3c(O)c(OC)c(OC)c(OC)c3o2)cc1O

27.15
24.66
28.12
31.85
29.26
25.68
29.71

Provide reported Cell Cycle Distribution S for each item, in the same order as listed.
1. COc1ccc(-c2oc3c(OC)c(OC)c(OC)c(OC)c3c(=O)c2O)cc1OC
2. COc1cc(-c2cc(=O)c3c(OC)c(OC)c(OC)c(OC)c3o2)ccc1O

[29.8, 30.66]

----------
Tested on: HL-60 cells
Test: Cell survival assay (antiproliferative IC50)
Type: cell-based, human
Conditions: HL-60 cells; read-out: Antiproliferative IC50
ENDPOINT: IC50 (µM)
Numbers only, in µM.

Form field: reported IC50 of COc1ccc(-c2oc3c(OC)c(OC)c(OC)c(OC)c3c(=O)c2OC)cc1OC [D, 3,5,6,7,8,3,4-heptamethoxyflavone, reference compound]
54.4

----------
Please provide measured Cell Cycle Distribution G2/M for the entries that follow.
Tested on: HL-60 cells
Test: Cell cycle distribution by flow cytometry
Type: cell-based, human
Conditions: 100 μM, 24 h, Table 10
Give bare numbers.

Some compounds with known Cell Cycle Distribution G2/M results, for comparison:
{"COMPOUND": "COc1cc(-c2cc(=O)c3c(OC)c(OC)c(OC)c(OC)c3o2)ccc1O", "Cell Cycle Distribution G2/M": 11.21}
{"COMPOUND": "COc1ccc(-c2oc3c(OC)c(OC)c(OC)c(O)c3c(=O)c2OC)cc1OC", "Cell Cycle Distribution G2/M": 18.74}
{"COMPOUND": "COc1cc(-c2cc(=O)c3c(O)c(OC)c(OC)c(OC)c3o2)cc(OC)c1OC", "Cell Cycle Distribution G2/M": 7.27}

Dear colleague, could you send me Cell Cycle Distribution G2/M for each of the items below? Thanks.
1. COc1cc(-c2cc(=O)c3c(OC)c(OC)c(OC)c(OC)c3o2)cc(OC)c1OC [F, 5,6,7,8,3′,4′,5′-heptamethoxyflavone, reference compound]
2. COc1ccc(-c2cc(=O)c3c(O)c(OC)c(OC)c(OC)c3o2)cc1OC
3. COc1ccc(-c2cc(=O)c3c(O)c(OC)c(OC)c(OC)c3o2)cc1O

1. 4.92
2. 7.45
3. 30.61
